Give cell number change for every item shown.
- Assay Notes: qHTS Assay for Lipid Storage Modulators in Drosophila S3 Cells;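 further: cells counted by Cell Tracker Red CMTPX staining in the red channel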
- Protocol Conditions: BODIPY lipid droplet fluorescence, 18-24 h, cells fed with added oleic acid; measured here: cell count max response
- Description: NIH Molecular Libraries Probe Production Centers Network [MLPCN] NIH Chemical Genomics Center [NCGC] […] Triacsin C (Sigma-Aldrich T-4540), an inhibitor of long-chain fatty acyl CoA synthetase that blocks synthesis of triglycerides, was used as a positive control for lipid under-storage. […] Fluorescence was detected by excitation of the fluorophores with a 488-nm laser on an Acumen Explorer (TTP Lab Tech). […] Cells were detected using channel 3 (575-640 nm) with 5-um width and 100-um depth filters. […]
Among all 320,000 compounds or so, about 2,100 (0.66%) were called active. About 53% were inconclusive and are not listed. Only a selection was taken, and actives are over-represented in it overall.
Answers are plain numbers, in %.

COc1ccc(NC(=O)C2CSC(C)(C)N2C=O)cc1 (configuration not stated) yielded cell number change of 7.51

Cc1cccc(C)c1OCc1cc(C(=O)N2CCC(c3ccncc3)CC2)no1 yielded cell number change of -16.1

Cc1ccccc1NC(=O)c1cccc(C(=O)Nc2ccccc2C)n1 yielded cell number change of -25.7

COc1cccc(OCc2cc(C(=O)N3CCN(C(C)=O)CC3)no2)c1 yielded cell number change of 19

Cc1ccc(NC(=O)Cn2c(=O)n(CCC(=O)NC3CCN(Cc4ccccc4)CC3)c(=O)c3ccccc32)cc1 yielded cell number change of 3.62

Parameters: items (list). Returns: cell number change for each item.
1. CCCCNC(=S)N/N=C/c1sccc1C
2. COc1ccc(CNC(=O)CN2C(=O)NC(C)(c3cccc4ccccc34)C2=O)cc1OC (configuration not stated)
3. COc1ccccc1OCc1cc(C(=O)N2CCCC(OCc3cccnc3)C2)no1 (configuration not stated)
4. O=C(CCC1CCCN(C(=O)c2ccc3c(c2)OCO3)C1)N1CCN(c2ccccn2)CC1 (configuration not stated)
5. S=C(NCc1cccc(Cl)c1)NCc1ccco1
6. Cc1ccccc1C(=O)Nc1cccc(-c2ccc3nncn3n2)c1
7. C/C(=N\NC(=O)c1c([N+](=O)[O-])c(C)nn1C)c1ccc(NC(=O)C2CCCC2)cc1

Solution:
1. -1.93
2. -4.84
3. 8.19
4. -1.56
5. 29.3
6. 10.3
7. 5.28

Parameters: items (list). Returns: cell number change for each item.
1. N#C/C(C(=O)Oc1ccccc1)=C1\C=Cc2ccccc2N1
2. O=C(Cc1cccc(F)c1)N1CCCC(CO)(Cc2ccc(F)cc2F)C1 (configuration not stated)

Solution:
1. -1.92
2. 17.6

Parameters: items (list). Returns: cell number change for each item.
1. Cc1oc(C(=O)O)cc1COc1cccc2ccccc12
2. Cc1cccc(-c2nc3sc(C)cc3c(=O)o2)c1
3. CC(=O)N[C@H](C(=O)N[C@@H](C)C(=O)N[C@H](C#N)CC(=O)O)C(C)C
4. CN(C)CCCNC(=O)C(=O)NCC1OCCN1S(=O)(=O)c1cccs1 (configuration not stated)
5. Cc1ccc2nc3c(cc(C(=O)NCc4ccco4)c(=N)n3Cc3ccco3)c(=O)n2c1
6. Cc1ccc(/C=C/C(=O)N(Cc2cccs2)C2CCS(=O)(=O)C2)cc1 (configuration not stated)
7. Cc1ccc(-n2c(C)nnc2SCC(=O)N2CCc3ccccc3C2)cc1
8. COc1ccc(CN(C)S(=O)(=O)c2nnc(NC(=O)c3ccccc3OC)s2)cc1OC

Solution:
1. 16.3
2. 1.66
3. 8.31
4. 1.62
5. -5.34
6. 11.3
7. -10.8
8. -3.88
